system: TAMH cells overexpressing Bcl-xL (TAMH-Bcl-xL, Tabx2s); assay: Cytotoxicity / apoptosis induction in TAMH cells overexpressing Bcl-xL; assay type: cell-based; details: Table 18; read-out: Bcl-XL
quantity-kind: pEC50
Quick note: pEC50 means taking -log10 of the concentration in moles per liter.

Example cases with answers are listed next.
| compound-structure | pEC50 |
| --- | --- |
| CCN(Cc1cc(Cl)cc(C)c1O)Cc1c(O)ccc2ccccc12 | 5.35 |
| CN(Cc1cc(Cl)cc(Cl)c1O)Cc1c(O)ccc2ccccc12 | 5.60 |

Now turn to the next molecule.
Exam item: Item CN(Cc1cc(Br)cc(Br)c1O)Cc1c(O)ccc2ccccc12 has what recorded pEC50?
Marked response: 5.43
